These measurements were taken from patent US20240208961A1.

Assay summary: Pharmacokinetic studies of certain compounds in female Balb/c mice (Example 5)
Format: in vivo
Condition info: female, Balb/c, mouse, plasma, iv, 1 mg/kg, I-27 IV 1 mg/kg, 1 hr, read-out: Plasma concentration Mean
Attribute measured: concentration at 1 hr (ng/mL)

                              smiles_string     attribute_measured  test_value
0  CC(C)Cc1sc(Nc2ncc(-c3cccs3)cc2C(=O)O)nc1C1(C)CCCCC1  concentration at 1 hr         356

###

Assay summary: Pharmacokinetic study of I-11 in female BALB/c mice (Example 4)
Assay type: in vivo, Balb/c mouse
Condition info: female, BALB/c, mouse, plasma, po, 50 mg/kg, PO 50 mg/kg, 0.25 hr, read-out: Plasma concentration Mean
Attribute measured: concentration at 0.25 hr (ng/mL)

>>> df
                              smiles_string        attribute_measured  readout_units  test_value
0  CC(C)Cc1sc(Nc2ncc(-c3cccs3)cc2C(=O)O)nc1C(C)(C)C  concentration at 0.25 hr          ng/mL        1760

###

Assay summary: Pharmacokinetic studies of certain compounds in female Balb/c mice (Example 5)
Assay type: in vivo
Condition info: mouse, plasma, I-27 PO 30 mg/kg
Attribute measured: half-life (h)

>>> print(df.to_string())
                                   molecule  attribute_measured  test_value
0  CC(C)Cc1sc(Nc2ncc(-c3cccs3)cc2C(=O)O)nc1C1(C)CCCCC1 [Compound I-27]           half-life        2.73

###

Assay summary: Pharmacokinetic study of I-11 in female BALB/c mice (Example 4)
Format: in vivo, Balb/c mouse
Condition info: mouse, plasma, PO 50 mg/kg
Attribute measured: MRT inf (h)

>>> print(df.to_string())
                                   compound  attribute_measured  test_value
0  CC(C)Cc1sc(Nc2ncc(-c3cccs3)cc2C(=O)O)nc1C(C)(C)C [Compound I-11]             MRT inf        3.79

###

Assay summary: Pharmacokinetic study of I-11 in female BALB/c mice (Example 4)
Type: in vivo, Balb/c mouse
Condition info: female, BALB/c, mouse, plasma, iv, 5 mg/kg, IV 5 mg/kg, 0.5 hr, read-out: Plasma concentration Mean
Attribute measured: concentration at 0.5 hr (ng/mL)

>>> print(df.to_string())
                                   molecule       attribute_measured  test_value
0  CC(C)Cc1sc(Nc2ncc(-c3cccs3)cc2C(=O)O)nc1C(C)(C)C [Compound I-11]  concentration at 0.5 hr        2450

###

Assay summary: Pharmacokinetic studies of certain compounds in female Balb/c mice (Example 5)
Format: in vivo
Condition info: mouse, plasma, I-3 PO 30 mg/kg
Attribute measured: half-life (h)

>>> print(df.to_string())
                              smiles_string  test_value
0  CC(C)Cc1sc(Nc2ncc(-c3cccs3)cc2C(=O)O)nc1C1CCCCC1        2.77

###

Assay summary: Pharmacokinetic study of I-11 in female BALB/c mice (Example 4)
Type: in vivo, Balb/c mouse
Condition info: female, BALB/c, mouse, plasma, po, 100 mg/kg, PO 100 mg/kg, 1 hr, read-out: Plasma concentration Individual
Attribute measured: concentration at 1 hr

>>> print(df.to_string())
                                   compound  test_value
0  CC(C)Cc1sc(Nc2ncc(-c3cccs3)cc2C(=O)O)nc1C(C)(C)C [Compound I-11]  8840 ng/mL
